# system: rVDAC1-GFP2 / rVDAC1-Rluc in T-REx-293 cells (Rattus norvegicus, UniProt Q9Z2L0)
# Construct: The rVDAC1 gene was cloned into BamHI and HindIII sites of the BRET2 plasmids (N2 variants); expressed in transfected cells; host or cells: T-REx-293 cells stably expressing hVDAC1-shRNA (T-REx-pS10)
# Sequence (Q9Z2L0 with tags, fused parts or gaps limits assumed): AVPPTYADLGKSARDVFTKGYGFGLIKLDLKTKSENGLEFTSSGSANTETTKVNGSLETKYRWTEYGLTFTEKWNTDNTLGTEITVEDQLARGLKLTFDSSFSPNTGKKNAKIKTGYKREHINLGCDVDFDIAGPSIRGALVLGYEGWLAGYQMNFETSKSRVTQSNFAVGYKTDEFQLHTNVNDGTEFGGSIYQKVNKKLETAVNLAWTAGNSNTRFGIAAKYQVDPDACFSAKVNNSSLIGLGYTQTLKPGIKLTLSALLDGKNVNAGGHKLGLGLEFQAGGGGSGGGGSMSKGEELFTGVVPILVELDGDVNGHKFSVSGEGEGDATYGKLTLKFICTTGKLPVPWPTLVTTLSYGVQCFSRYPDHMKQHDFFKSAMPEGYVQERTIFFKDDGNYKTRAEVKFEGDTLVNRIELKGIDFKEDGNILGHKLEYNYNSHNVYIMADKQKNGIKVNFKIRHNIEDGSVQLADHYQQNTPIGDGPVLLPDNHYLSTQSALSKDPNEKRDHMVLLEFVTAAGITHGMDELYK
# protocol: BRET2 assay of VDAC1 oligomerization induced by apoptosis inducers (Method A)
# Format: cell-based
# study-conditions: test compound 10 μM, 1 h pre-incubation, STS 1 μM (3 h)
assay-readout: BRET2, % of inhibition, STS (%)
Provide only the numeric value, understood in %.

Below, each entry is followed by its recorded BRET2, % of inhibition, STS result.
compound	reading-unit	observed-result
O=C(O)c1ccccc1C(=O)Nc1ccccc1[N+](=O)[O-] [NSC 41066]	%	0
Clc1ccc(/C=C/c2nc(Cl)c(-c3ccc(Cl)cc3)c(Cl)n2)cc1 [NSC 154389]	%	45.9
O=[N+]([O-])c1ccc(-c2ncc(-c3ccc(Br)cc3)o2)cc1 [NSC 372767]	%	0

# returns recorded BRET2, % of inhibition, STS (system: rVDAC1-GFP2 / rVDAC1-Rluc in T-REx-293 cells (Rattus norvegicus, UniProt Q9Z2L0)) for Nc1nc(N)c(C=Nc2ccc(Br)cc2)c(Nc2ccc(Br)cc2)n1 [NSC 103520]
22.7

# returns recorded BRET2, % of inhibition, STS (system: rVDAC1-GFP2 / rVDAC1-Rluc in T-REx-293 cells (Rattus norvegicus, UniProt Q9Z2L0)) for O=C(/C=C/c1ccccc1)NC(=S)Nc1ncccn1 [NSC 205968]
0
